tested on: barnyardgrass (Echinochloa crus-qalli L.); assay: Test Example 1: foliar treatment, growth inhibition rate on 14th day; format: in vivo; details: active ingredient amount 31 g/ha, 14th day after application
measurement-kind: Growth inhibition rate (%) Barnyardgrass
I only need the number, in %, no unit after it.

Illustrative cases are given below, each with its answer.
Cc1ccc(Nc2ncc(C(F)(F)F)cc2Cl)cc1-c1c(O)c(C)nn(C)c1=O: 30
CCc1ccc(Sc2ncc(C(F)(F)F)cc2Cl)cc1-c1c(O)c(C)nn(C)c1=O: 99
CCn1ncc(O)c(-c2cc(Oc3ncc(C(F)(F)F)cc3Cl)ccc2C)c1=O: 100

Query: Query Growth inhibition rate (%) Barnyardgrass on barnyardgrass (Echinochloa crus-qalli L.) for Cc1ccc(Oc2cnc3cc(Cl)ccc3n2)cc1-c1c(OC(=O)N2CCOCC2)c(C)nn(C)c1=O
Reply: 88

Query: Form entry - test system: barnyardgrass (Echinochloa crus-qalli L.); read-out: Growth inhibition rate (%) Barnyardgrass; molecule: Cc1ccc(Oc2ncc(C(F)(F)F)cc2C(F)(F)F)cc1-c1c(O)c(C)nn(C)c1=O
Reply: 99

Query: Tell me reported Growth inhibition rate (%) Barnyardgrass for CC(=O)Oc1c(C)nn(C)c(=O)c1-c1cc(Sc2ncc(C(F)(F)F)cc2Cl)ccc1C , tested with barnyardgrass (Echinochloa crus-qalli L.).
Reply: 100

Query: API: value(readout=Growth inhibition rate (%) Barnyardgrass, system=barnyardgrass (Echinochloa crus-qalli L.)) for record COC(=O)OC(C)Oc1cnn(C)c(=O)c1-c1cc(Oc2nc3ccc(Cl)cc3o2)ccc1C (centres unmarked)
Reply: 100

Query: Give Growth inhibition rate (%) Barnyardgrass (barnyardgrass (Echinochloa crus-qalli L.)) of the following molecule: CC(=O)Oc1c(C)nn(C)c(=O)c1-c1cc(Oc2nc3ccccc3o2)ccc1C
Reply: 90
